Measured values drawn from patent US20230263822A1 for this set.

Reported hemoglobin by item:
Assay: Hematology assays in cynomolgus monkeys (Example 45)
Type: in vivo
Details: day −14; escalating dose regimen
MEASUREMENT_LABEL: hemoglobin

• ISIS 416864: MOE gapmer, nucleobases 1275 to 1318 of SEQ ID NO: 1 (Table 8) (antisense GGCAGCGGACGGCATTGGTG; MOE gapmer, wing and gap sizes not given here) = 12.7 g/dL
• ISIS 416838: MOE gapmer, nucleobases 1018 to 1042 of SEQ ID NO: 1 (Table 6) (antisense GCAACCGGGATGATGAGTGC; MOE gapmer, wing and gap sizes not given here) = 12.9 g/dL
• ISIS 417002: MOE gapmer, nucleobases 1275 to 1318 of SEQ ID NO: 1 (Table 8) (antisense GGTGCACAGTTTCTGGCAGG; MOE gapmer, wing and gap sizes not given here) = 13.0 g/dL

###

Experiment: Body and organ weights of cynomolgus monkeys (Example 45)
Type: in vivo
Conditions: day 64; escalating dose regimen
MEASUREMENT_LABEL: body weights (g)

• ISIS 416864: MOE gapmer, nucleobases 1275 to 1318 of SEQ ID NO: 1 (Table 8) (antisense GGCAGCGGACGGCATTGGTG; MOE gapmer, wing and gap sizes not given here) = 3384
• ISIS 416838: MOE gapmer, nucleobases 1018 to 1042 of SEQ ID NO: 1 (Table 6) (antisense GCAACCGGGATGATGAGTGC; MOE gapmer, wing and gap sizes not given here) = 2746
• ISIS 416850: MOE gapmer, nucleobases 1275 to 1318 of SEQ ID NO: 1 (Table 8) (antisense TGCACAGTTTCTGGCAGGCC; MOE gapmer, wing and gap sizes not given here) = 2642
• ISIS 417002: MOE gapmer, nucleobases 1275 to 1318 of SEQ ID NO: 1 (Table 8) (antisense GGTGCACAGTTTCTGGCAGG; MOE gapmer, wing and gap sizes not given here) = 2598
• ISIS 416858: MOE gapmer, nucleobases 1275 to 1318 of SEQ ID NO: 1 (Table 8) (antisense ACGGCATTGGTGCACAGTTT; MOE gapmer, wing and gap sizes not given here) = 2618

###

Settings: rat, in vivo, sc, 50 mg/kg
e = 2'-O-(2-methoxyethyl) (MOE); d = 2'-deoxy (DNA)
Reported HCT by item:
MEASUREMENT_LABEL: HCT (%)

• ISIS 416856: MOE gapmer, nucleobases 1275 to 1318 of SEQ ID NO: 1 (Table 8) (antisense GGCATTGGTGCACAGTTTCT; MOE gapmer, wing and gap sizes not given here) = 43
• ISIS 413481: 5-10-5 MOE gapmer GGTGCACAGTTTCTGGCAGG (sugars from the 5' end e5 d10 e5, backbone and methylation of C not given here) = 43
• ISIS 416851: MOE gapmer, nucleobases 1275 to 1318 of SEQ ID NO: 1 (Table 8) (antisense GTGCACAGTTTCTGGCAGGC; MOE gapmer, wing and gap sizes not given here) = 42
• ISIS 412224: 5-10-5 MOE gapmer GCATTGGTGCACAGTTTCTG (sugars from the 5' end e5 d10 e5, backbone and methylation of C not given here) = 42
• ISIS 416867: MOE gapmer, nucleobases 1275 to 1318 of SEQ ID NO: 1 (Table 8) (antisense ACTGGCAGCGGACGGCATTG; MOE gapmer, wing and gap sizes not given here) = 45
• ISIS 413482: 5-10-5 MOE gapmer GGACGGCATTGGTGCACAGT (sugars from the 5' end e5 d10 e5, backbone and methylation of C not given here) = 40
• ISIS 416860: MOE gapmer, nucleobases 1275 to 1318 of SEQ ID NO: 1 (Table 8) (antisense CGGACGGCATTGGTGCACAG; MOE gapmer, wing and gap sizes not given here) = 45
• ISIS 412225: 5-10-5 MOE gapmer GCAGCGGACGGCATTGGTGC (sugars from the 5' end e5 d10 e5, backbone and methylation of C not given here) = 42
• ISIS 416866: MOE gapmer, nucleobases 1275 to 1318 of SEQ ID NO: 1 (Table 8) (antisense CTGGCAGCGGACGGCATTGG; MOE gapmer, wing and gap sizes not given here) = 44
• ISIS 412223: 5-10-5 MOE gapmer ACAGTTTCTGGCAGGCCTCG (sugars from the 5' end e5 d10 e5, backbone and methylation of C not given here) = 41
• ISIS 416861: MOE gapmer, nucleobases 1275 to 1318 of SEQ ID NO: 1 (Table 8) (antisense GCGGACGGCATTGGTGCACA; MOE gapmer, wing and gap sizes not given here) = 45
